test: Cytotoxicity against dog MDCK cells assessed as reduction in cell viability; type: toxicity, cell-based, Canis lupus familiaris
measurement-kind: CC50

So what does the record say about CC50 for `CC1(C)C=C2C(=Cc3cc4c5c([nH]c4cc32)[C@@]2(C)[C@@H](CC[C@@]34O[C@@]6(O)[C@H](O)C(C)(C)O[C@H]6[C@@H]3C(=O)CC[C@]24C)C5)C(C)(C)O1` ?
13 µM

Quick one: CC50 for `NC(=O)c1nc(F)c[nH]c1=O` ?
> 1000 µM

Requested field: CC50. Item: `CC1(C)C=C2C(=Cc3cc4c5c([nH]c4cc32)[C@@]2(C)[C@@H](CCC3=C([C@@H]4OC(C)(C)[C@@H](O)C4=O)C(=O)CC[C@@]32C)C5)C(C)(C)O1`
27 µM

* * *

test: Cytotoxicity against human HEp-2 cells assessed as reduction in cell viability; assay type: toxicity, cell-based
I'd appreciate it if you could supply CC50 values for the items below.
Lab book: enter the figure in µM, no units written.

Returns the measured CC50 for the input compound. Input: `CC1(C)C=C2C(=Cc3cc4c5c([nH]c4cc32)[C@@]2(C)[C@@H](CCC3=C([C@@H]4OC(C)(C)[C@@H](O)C4=O)C(=O)CC[C@@]32C)C5)C(C)(C)O1`
31

Dear colleague, I am looking for the recorded CC50 of the following compound: `CC1(C)C=C2C(=Cc3cc4c5c([nH]c4cc32)[C@@]2(C)[C@@H](CC[C@@]34O[C@@]6(O)[C@H](O)C(C)(C)O[C@H]6[C@@H]3C(=O)CC[C@]24C)C5)C(C)(C)O1`
15

* * *

assay: Therapeutic index, ratio of CC50 for Cytotoxicity against human HEp-2 cells to IC50 for Antiviral activity against Respiratory syncytial virus infected in human HEp-2 cells; type: toxicity, cell-based; conditions: read-out: Ratio CC50/IC50
Answer each item with its documented selectivity ratio.
Reply: number alone, nothing else.

Give the measured selectivity ratio of `CC1(C)C=C2C(=Cc3cc4c5c([nH]c4cc32)[C@@]2(C)[C@@H](CC[C@@]34O[C@@]6(O)[C@H](O)C(C)(C)O[C@H]6[C@@H]3C(=O)CC[C@]24C)C5)C(C)(C)O1` .
5.5

Give the measured selectivity ratio of `CC1(C)C=C2C(=Cc3cc4c5c([nH]c4cc32)[C@@]2(C)[C@@H](CCC3=C([C@@H]4OC(C)(C)[C@@H](O)C4=O)C(=O)CC[C@@]32C)C5)C(C)(C)O1` .
4.6

* * *

assay: Therapeutic index, ratio of CC50 for Cytotoxicity against dog MDCK cells to IC50 for Antiviral activity against Influenza A virus A/WSN/33(H1N1) infected in dog MDCK cells; assay type: toxicity, cell-based; conditions: read-out: Ratio CC50/IC50
I'd be grateful if you could share measured selectivity ratio for these entries.

Could you share which selectivity ratio value was measured for `CC1(C)C=C2C(=Cc3cc4c5c([nH]c4cc32)[C@@]2(C)[C@@H](CC[C@@]34O[C@@]6(O)[C@H](O)C(C)(C)O[C@H]6[C@@H]3C(=O)CC[C@]24C)C5)C(C)(C)O1` ?
3.5

What value of selectivity ratio has been reported for the following compound? `NC(=O)c1nc(F)c[nH]c1=O`
> 28

So what's the measured selectivity ratio for this one? `CC1(C)C=C2C(=Cc3cc4c5c([nH]c4cc32)[C@@]2(C)[C@@H](CCC3=C([C@@H]4OC(C)(C)[C@@H](O)C4=O)C(=O)CC[C@@]32C)C5)C(C)(C)O1`
2.8
